# target: CD3ε homodimer protein (human, UniProt P07766 23-126, limits assumed)
# Sequence (P07766 23-126 limits assumed): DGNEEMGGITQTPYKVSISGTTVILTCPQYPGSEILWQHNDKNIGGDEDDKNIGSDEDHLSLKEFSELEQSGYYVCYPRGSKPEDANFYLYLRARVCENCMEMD
# assay-overview: SPR, immobilized CD3ε homodimer;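 note: biacore T200 surface plasmon resonance at 25 °C, antibody variants flowed as analytes over amine-coupled CD3ε homodimer on a CM4 chip, variant binding amount divided by that of GLS3000 antibody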
Documented ratio of amounts bound (vs GLS3000) across a set of binders
Would you mind answering with just the numeric figure?

Prompt line: Given GLS3000 N28Y (antibody, name in Kabat numbering, V domains shown, one-arm format as m2) VH: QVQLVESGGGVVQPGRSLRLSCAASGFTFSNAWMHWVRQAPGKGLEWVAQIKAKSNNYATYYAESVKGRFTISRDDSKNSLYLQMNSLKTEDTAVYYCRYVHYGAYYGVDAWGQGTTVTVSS VL: DIVMTQSPLSLPVTPGEPASISCRSSQSLVHSYRNTYLHWYQQKPGQAPRLLIYKVSNRFSGVPDRFSGSGSGTDFTLKISRVEAEDVGVYYCGQGTQVPYTFGQGTKLEIK , state its recorded ratio of amounts bound (vs GLS3000).
Response line: 0.26

Prompt line: Requested field: ratio of amounts bound (vs GLS3000). Item: GLS3000 S56H (antibody, name in Kabat numbering, V domains shown, one-arm format as m2) VH: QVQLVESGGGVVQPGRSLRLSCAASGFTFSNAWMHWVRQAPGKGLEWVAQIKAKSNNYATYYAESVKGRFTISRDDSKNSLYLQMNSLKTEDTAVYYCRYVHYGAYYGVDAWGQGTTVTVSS VL: DIVMTQSPLSLPVTPGEPASISCRSSQSLVHSNRNTYLHWYQQKPGQAPRLLIYKVSNRFHGVPDRFSGSGSGTDFTLKISRVEAEDVGVYYCGQGTQVPYTFGQGTKLEIK
Response line: 1.05

Now take the following binder into account.
Prompt line: Which ratio of amounts bound (vs GLS3000) reading was recorded for the binder GLS3000 S27aG (antibody, name in Kabat numbering, V domains shown, one-arm format as m2) VH: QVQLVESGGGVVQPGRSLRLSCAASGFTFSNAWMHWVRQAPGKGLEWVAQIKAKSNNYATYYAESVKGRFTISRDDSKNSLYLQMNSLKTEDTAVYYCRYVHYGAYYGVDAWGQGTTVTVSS VL: DIVMTQSPLSLPVTPGEPASISCRSSQGLVHSNRNTYLHWYQQKPGQAPRLLIYKVSNRFSGVPDRFSGSGSGTDFTLKISRVEAEDVGVYYCGQGTQVPYTFGQGTKLEIK ?
Response line: 1.03
